Biological target: 14-3-3ζ:BAD-112-136F interactions (Homo sapiens)
Construct: expressed in transfected cells; host or cells: NIH-3T3 fibroblasts, bi-directional pBI-CMV1 plasmid
Sequence (P63104 1-245): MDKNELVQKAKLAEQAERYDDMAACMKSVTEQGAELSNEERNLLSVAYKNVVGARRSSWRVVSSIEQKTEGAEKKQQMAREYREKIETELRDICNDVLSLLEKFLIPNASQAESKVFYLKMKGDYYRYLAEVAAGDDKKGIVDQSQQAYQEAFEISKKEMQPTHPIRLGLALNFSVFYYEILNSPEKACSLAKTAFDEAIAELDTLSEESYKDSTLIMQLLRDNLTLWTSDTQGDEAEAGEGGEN
Test: BRET sensor screen for disruption of 14-3-3ζ-Rluc8:BAD-112-136F-mCitrine in living NIH-3T3 cells
Format: cell-based, murine
Design: dose or concentration left out as unconfirmed
Conditions: NIH3T3, 3 h, NIH-3T3 cells; hits from the primary screen; read-out: BRET reduction on NIH-3T3
Where a name gives a salt, the structure may show the parent alone.
MEASURED_PROPERTY: inhibition (%)
One number for each entry, in %.

# COMPOUND, inhibition (%)
data = [
    ("CCOc1nc2cccc(C(=O)OC(C)OC(=O)OC3CCCCC3)c2n1Cc1ccc(-c2ccccc2-c2nnn[nH]2)cc1 (stereo not drawn) [Candesartan Cilexetil]", 44.9),
]

Please state, for each entry, its recorded inhibition.
1. CCN1CCN(c2cc(-c3ccc(F)cc3)c3c(n2)CCCCCC3)CC1 [Blonanserin]
2. CC/C(=C(\c1ccccc1)c1ccc(OCCN(C)C)cc1)c1ccccc1 [Tamoxifen Citrate]
3. CC/C(=C(/CC)c1ccc(O)cc1)c1ccc(O)cc1 [Diethylstilbestrol]
4. C=CC[C@@H]1/C=C(\C)C[C@H](C)C[C@H](OC)[C@H]2O[C@@](O)(C(=O)C(=O)N3CCCC[C@H]3C(=O)O[C@H](/C(C)=C/[C@@H]3CC[C@@H](O)[C@H](OC)C3)[C@H](C)[C@@H](O)CC1=O)[C@H](C)C[C@@H]2OC [Tacrolimus (FK506), Tacrolimus]
5. Clc1ccc(C(c2ccccc2Cl)C(Cl)Cl)cc1 (stereo not drawn) [Mitotane (Lsodren), Mitotane]
6. CCCCc1oc2ccc(NS(C)(=O)=O)cc2c1C(=O)c1ccc(OCCCN(CCCC)CCCC)cc1 [Dronedarone]
7. OC1(c2ccc(Cl)c(C(F)(F)F)c2)CCN(CCCC(c2ccc(F)cc2)c2ccc(F)cc2)CC1 [Penfluridol]
8. COc1cc(C(=O)NS(=O)(=O)c2ccccc2C)ccc1Cc1cn(C)c2ccc(NC(=O)OC3CCCC3)cc12 [Zafirlukast]

Output line:
25.1
51.8
28.3
26
25.6
50.4
53.8
30.4

###

Biological target: 14-3-3ζ:BAD-112-136F interactions (Homo sapiens, UniProt P63104)
Construct: expressed in transfected cells; host or cells: NIH-3T3 fibroblasts, bi-directional pBI-CMV1 plasmid
Sequence (P63104 1-245): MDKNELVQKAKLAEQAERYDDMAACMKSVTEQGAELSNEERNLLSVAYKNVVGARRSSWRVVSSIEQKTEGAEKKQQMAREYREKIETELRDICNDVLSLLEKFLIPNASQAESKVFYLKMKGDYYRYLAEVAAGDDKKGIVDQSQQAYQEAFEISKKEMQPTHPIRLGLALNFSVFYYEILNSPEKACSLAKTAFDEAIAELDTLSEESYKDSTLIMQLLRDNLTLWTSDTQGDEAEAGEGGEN
Assay: BRET sensor screen for disruption of 14-3-3ζ-Rluc8:BAD-112-136F-mCitrine in living NIH-3T3 cells
Assay type: cell-based, murine
Set-up: dose or concentration left out as unconfirmed
Conditions: NIH3T3, 3 h, NIH-3T3 cells; hits from the primary screen; read-out: BRET reduction on NIH-3T3
Counter-ions that a name gives are not always drawn.
MEASURED_PROPERTY: inhibition (%)
Numbers only, in %.

These recorded examples may help you get a feel for the data.
# COMPOUND, inhibition / %
measured = [
    ("Clc1ccc(C(Cn2ccnc2)OCc2csc3c(Cl)cccc23)c(Cl)c1 (stereo not drawn) [Sertaconazole nitrate]", 46.8),
    ("Clc1ccc(COC(Cn2ccnc2)c2ccc(Cl)cc2Cl)c(Cl)c1 (stereo not drawn)", 48.7),
    ("COc1cc2ncnc(Nc3ccc(F)c(Cl)c3)c2cc1NC(=O)/C=C/CN1CCCCC1", 26.7),
    ("CC(C)(O)c1ccccc1CC[C@@H](SCC1(CC(=O)O)CC1)c1cccc(/C=C/c2ccc3ccc(Cl)cc3n2)c1 [Montelukast Sodium]", 30.9),
    ("CC1=C(C(=O)OC(C)C)C(c2cccc([N+](=O)[O-])c2)C(C(=O)OC2CN(C(c3ccccc3)c3ccccc3)C2)=C(N)N1 (stereo not drawn)", 40.2),
    ("CC(C)(C)C#Cc1cc(N(C(=O)[C@H]2CC[C@H](C)CC2)[C@H]2CC[C@H](O)CC2)c(C(=O)O)s1", 41.6),
    ("COc1cc(C(=O)O)ccc1NC(=O)[C@@H]1N[C@@H](CC(C)(C)C)[C@](C#N)(c2ccc(Cl)cc2F)[C@H]1c1cccc(Cl)c1F", 41.6),
    ("C=C(c1ccc(C(=O)O)cc1)c1cc2c(cc1C)C(C)(C)CCC2(C)C", 29.5),
]

Please state, for each entry, its recorded inhibition.
1. CCOC(=O)C1=C(C)NC(C)=C(C(=O)OC)C1c1cccc(Cl)c1Cl (stereo not drawn)
2. C=CCc1ccc(O)c(-c2ccc(O)c(CC=C)c2)c1
3. CN(C)CCCN1c2ccccc2CCc2ccc(Cl)cc21 [Clomipramine HCl]
4. COc1cc2c(Oc3ccc4[nH]c(C)cc4c3F)ncnc2cc1OCCCN1CCCC1

Output line:
1. 27.6
2. 34.2
3. 27
4. 39.9

src = paper PMC12603070
